# Tested on: HL-60(TB) leukemia
# ASSAY INFO: NCI-60 one-dose screen, 48 h (100 = growth as untreated, 0 = no growth, -100 = all killed)
# RUN CONDITIONS: 10 µM unless noted
This is part of a sample that, as a whole, favours compounds with a hit. Of some 83,000 tested, about 20% had one in any assay.
Threshold 40%: growth strictly smaller gives Criterion met, otherwise Criterion not met.

Would you kindly verify if growth of `Clc1ccc2c(NCCCN3CCOCC3)c3oc4ccccc4c3nc2c1` is strictly less than 40%? Criterion met

Item: `COc1cc2c3c(cc4c5c(ccc4c3c1OC)OCO5)N(CCN(C)C)C2=O` Criterion met

Item: `O=C(CSc1nc2sc3c(c2c(=O)n1-c1ccc(Cl)cc1)CCCC3)NNC(=O)Nc1ccc(Cl)c(C(F)(F)F)c1` Criterion met

Item: `COc1cc(-c2nn(C(C)(C)C)cc2-c2ccnc(NCCCNS(=O)(=O)c3cccc(F)c3)n2)ccc1Cl` Criterion not met

Item: CCOC(=O)C1=C(C)N=C2Sc3ccccc3N2C1c1ccccc1 (configuration not stated) Criterion not met

Item: `CCCCCc1ccc(S(=O)(=O)Nc2cccc(-c3csc(NC(=O)CN4CCN(CCO)CC4)n3)c2)cc1` Criterion not met

Item: `O=C(/C=C/c1cccc(F)c1)c1cccc(OCCCCOc2cccc(C(=O)/C=C/c3cccc(F)c3)c2)c1` Criterion not met

====

# Tested on: HL-60(TB) leukemia
# ASSAY INFO: NCI-60 one-dose screen, 48 h (100 = growth as untreated, 0 = no growth, -100 = all killed)
# RUN CONDITIONS: 10 µM unless noted
Compounds without any hit were thinned out: in the full panel of roughly 83,000, 20% have a hit.
growth of 30% or higher: yes. Under 30%: no.

Does the compound `ClC(Cl)c1nc(-c2ccco2)n2nc(-c3ccccc3)cc2n1` have recorded growth that is 30% or more? no

Item: `Nc1ncc(-c2ccc3ncnc(Nc4cccc(Cl)c4F)c3c2)cn1` yes

Item: `CCCCCc1ccc(S(=O)(=O)Nc2cc(-c3csc(NC(=O)CN4CCN(CCO)CC4)n3)ccc2OC)cc1` no

Item: `Fc1ccc(-c2cc3nc(C(Cl)Cl)nc(-c4ccccc4)n3n2)cc1` no

Item: `COc1cc(OC)c(S(N)(=O)=O)cc1C(=O)/C=C/c1ccc(C)cc1` no

Item: CN1C(=O)N(C)C2Nn3c(s/c(=C\c4ccccn4)c3=O)=NC21 (centres undefined) yes

Item: `Cc1cc(Cl)cc(NS(=O)(=O)c2ccc(-c3cnc(C4CC4)o3)cc2)c1` no

Item: `N#Cc1nc(-c2ccccc2)oc1S(=O)(=O)N1CCN(CCc2ccccn2)CC1` no

Item: `COc1ccc(-c2ccnc3c(C#N)c(Nc4ccccc4)nn23)cc1OC` yes

Item: CCOC(=O)C1=C(C)Nc2nc3ccccc3n2C1c1cccc(Br)c1 (centres undefined) no

Item: `O=C(N/N=C/c1ccc[nH]1)c1[nH]c2ccc(Br)cc2c1-c1ccccc1` no

Item: `CN1CCN(c2ccc(/C=N/n3cnc4oc(-c5ccccc5)cc4c3=N)cc2)CC1` yes

Item: NC(=O)N1N=C(c2cc3ccccc3oc2=O)CC1c1cn(-c2ccccc2)nc1-c1ccc(Cl)cc1 (centres undefined) yes

====

Can you tell me growth for the items I'm about to list?
# Test system: HL-60(TB) leukemia
# ASSAY INFO: NCI-60 one-dose screen, 48 h (100 = growth as untreated, 0 = no growth, -100 = all killed)
# RUN CONDITIONS: 10 µM unless noted
This is part of a sample that, as a whole, favours compounds with a hit. Of some 83,000 tested, about 20% had one in any assay.
Supply the numeric figure in %, leaving out any unit text.

Quick one: growth of `O=c1c2c(O)cccc2oc2c3c(cc(O)c12)O[C@H]1OC=C[C@@H]31` ? 89.7

Item: `O=C(CSc1nc2sc3c(c2c(=O)n1-c1ccc(Cl)cc1)CCCC3)N/N=C/c1ccc(F)cc1` 97.9

Item: `CC(C)(C)OC(=O)N1C(=O)c2c(c3c4ccccc4[nH]c3c3ccc4ccccc4c23)C1=O` 39.6
